The values you see were collected from ChEMBL document CHEMBL5321287.

target: UniProt P17948
Sequence (P17948 whole entry): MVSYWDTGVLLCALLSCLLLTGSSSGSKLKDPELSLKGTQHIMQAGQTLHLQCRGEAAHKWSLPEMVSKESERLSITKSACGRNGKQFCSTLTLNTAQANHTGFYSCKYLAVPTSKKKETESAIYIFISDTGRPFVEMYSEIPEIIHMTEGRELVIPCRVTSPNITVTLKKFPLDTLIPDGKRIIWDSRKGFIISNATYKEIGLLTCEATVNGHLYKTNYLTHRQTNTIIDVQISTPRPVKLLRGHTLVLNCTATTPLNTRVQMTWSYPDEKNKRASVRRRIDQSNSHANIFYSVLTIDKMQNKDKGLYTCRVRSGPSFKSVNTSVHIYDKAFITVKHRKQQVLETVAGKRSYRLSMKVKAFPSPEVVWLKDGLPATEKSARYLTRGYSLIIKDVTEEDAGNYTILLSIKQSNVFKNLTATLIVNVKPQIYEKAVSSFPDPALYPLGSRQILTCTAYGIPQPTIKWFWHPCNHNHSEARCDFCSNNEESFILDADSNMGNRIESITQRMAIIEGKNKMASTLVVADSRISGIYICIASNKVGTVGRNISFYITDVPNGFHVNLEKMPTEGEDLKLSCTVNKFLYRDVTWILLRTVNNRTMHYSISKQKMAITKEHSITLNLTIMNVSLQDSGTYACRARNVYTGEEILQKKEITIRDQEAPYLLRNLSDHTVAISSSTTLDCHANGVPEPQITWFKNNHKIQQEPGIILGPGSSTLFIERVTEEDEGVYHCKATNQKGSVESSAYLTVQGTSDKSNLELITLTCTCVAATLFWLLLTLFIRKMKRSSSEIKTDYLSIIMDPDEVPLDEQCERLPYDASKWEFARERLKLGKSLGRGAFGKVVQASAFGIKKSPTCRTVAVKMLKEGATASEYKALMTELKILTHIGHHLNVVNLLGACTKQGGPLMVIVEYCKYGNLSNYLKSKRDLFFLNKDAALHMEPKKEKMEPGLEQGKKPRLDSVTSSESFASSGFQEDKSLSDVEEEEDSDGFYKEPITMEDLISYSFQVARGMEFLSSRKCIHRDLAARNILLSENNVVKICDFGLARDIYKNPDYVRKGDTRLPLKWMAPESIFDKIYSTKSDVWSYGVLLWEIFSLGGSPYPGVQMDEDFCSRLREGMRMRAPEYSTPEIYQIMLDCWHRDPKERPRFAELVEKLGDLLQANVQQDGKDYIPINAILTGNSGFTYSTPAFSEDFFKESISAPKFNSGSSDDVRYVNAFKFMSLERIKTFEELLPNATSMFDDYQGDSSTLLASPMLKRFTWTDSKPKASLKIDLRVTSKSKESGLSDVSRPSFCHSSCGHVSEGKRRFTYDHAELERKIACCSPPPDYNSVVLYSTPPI
REPORTED_METRIC: IC50 (nM)
Numeric answer only, unit nM assumed.

Inquiry: Query for UniProt P17948: what IC50 does the record show for Cc1ccc(Nc2nccc(N(C)c3ccc4c(C)n(C)nc4c3)n2)cc1-c1nc2c(C(N)=O)cccc2[nH]1 ?
Reply text: 166

###

target: Poly [ADP-ribose] polymerase 1 (Homo sapiens); assay: Inhibition of PARP1 (unknown origin)
Sequence (P09874 whole entry): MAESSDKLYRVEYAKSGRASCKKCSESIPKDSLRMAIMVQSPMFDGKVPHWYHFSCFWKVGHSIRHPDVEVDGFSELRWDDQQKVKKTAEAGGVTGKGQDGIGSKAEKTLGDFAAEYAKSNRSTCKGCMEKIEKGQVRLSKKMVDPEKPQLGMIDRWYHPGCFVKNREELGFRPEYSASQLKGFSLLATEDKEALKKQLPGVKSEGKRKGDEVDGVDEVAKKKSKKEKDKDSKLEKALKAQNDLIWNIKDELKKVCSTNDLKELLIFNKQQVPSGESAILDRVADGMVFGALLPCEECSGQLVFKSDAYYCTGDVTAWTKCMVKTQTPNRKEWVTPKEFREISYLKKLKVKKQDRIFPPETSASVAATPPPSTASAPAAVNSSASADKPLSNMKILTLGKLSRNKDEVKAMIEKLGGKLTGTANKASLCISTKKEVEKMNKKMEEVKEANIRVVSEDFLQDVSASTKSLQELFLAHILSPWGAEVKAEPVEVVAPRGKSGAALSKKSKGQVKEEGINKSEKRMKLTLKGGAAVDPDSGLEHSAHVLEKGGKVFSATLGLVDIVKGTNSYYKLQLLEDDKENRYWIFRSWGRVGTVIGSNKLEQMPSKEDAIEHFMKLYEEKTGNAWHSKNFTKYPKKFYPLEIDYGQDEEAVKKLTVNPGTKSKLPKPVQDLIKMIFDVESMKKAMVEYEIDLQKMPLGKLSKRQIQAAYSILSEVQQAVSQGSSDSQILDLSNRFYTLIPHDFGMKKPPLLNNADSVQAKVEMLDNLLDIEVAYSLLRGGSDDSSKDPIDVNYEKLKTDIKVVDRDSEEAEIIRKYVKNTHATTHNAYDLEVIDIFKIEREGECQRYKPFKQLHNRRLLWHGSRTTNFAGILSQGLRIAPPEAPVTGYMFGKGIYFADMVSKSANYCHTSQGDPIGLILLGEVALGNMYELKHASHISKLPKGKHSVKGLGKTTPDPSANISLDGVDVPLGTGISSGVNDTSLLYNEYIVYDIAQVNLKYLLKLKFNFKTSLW
Catalogue of IC50 readings, one per entry.
Numeric answer only, unit nM assumed.

As a guide, the following entries are already answered.
{"STRUCTURE_SMILES_STRING": "Cc1c2ccc(N(C)c3ccnc(Nc4ccc(-c5nc6c(C(N)=O)cccc6[nH]5)cc4F)n3)cc2nn1C", "MEASURED_TARGET": "Poly [ADP-ribose] polymerase 1 (Homo sapiens)", "REPORTED_METRIC": "IC50", "UNIT_SPEC": "nM", "READING": 118}
{"STRUCTURE_SMILES_STRING": "NC(=O)c1cccc2[nH]c(-c3ccc(Nc4nccc(N5CCN(C(=O)c6ccccc6)CC5)n4)cc3)nc12", "MEASURED_TARGET": "Poly [ADP-ribose] polymerase 1 (Homo sapiens)", "REPORTED_METRIC": "IC50", "UNIT_SPEC": "nM", "READING": 128}
{"STRUCTURE_SMILES_STRING": "Cc1c2ccc(N(C)c3ccnc(Nc4cccc(-c5nc6cc(F)c(F)cc6[nH]5)c4)n3)cc2nn1C", "MEASURED_TARGET": "Poly [ADP-ribose] polymerase 1 (Homo sapiens)", "REPORTED_METRIC": "IC50", "UNIT_SPEC": "nM", "READING": 647}

Inquiry: For the compound Cc1c2ccc(N(C)c3ccnc(Nc4cc(F)c(-c5nc6c(C(N)=O)cccc6[nH]5)c(F)c4)n3)cc2nn1C , what IC50 is on record?
Reply text: 342

Inquiry: For the compound CN(c1ccc(Cl)cc1)c1ccnc(Nc2ccc(C(=O)Nc3nc4c(C(N)=O)cccc4[nH]3)cc2)n1 , what IC50 is on record?
Reply text: 137

Inquiry: For the compound CN(c1ccc(F)cc1)c1ccnc(Nc2ccc(-c3nc4c(C(N)=O)cccc4[nH]3)cc2)n1 , what IC50 is on record?
Reply text: 130

Inquiry: For the compound Cc1c2ccc(N(C)c3ccnc(Nc4ccc(-c5nc6c(C(N)=O)cccc6[nH]5)cc4)n3)cc2nn1C , what IC50 is on record?
Reply text: 95.7

Inquiry: For the compound Cc1ccc(Nc2nccc(N(C)c3ccc4c(C)n(C)nc4c3)n2)cc1-c1nc2cc(F)c(F)cc2[nH]1 , what IC50 is on record?
Reply text: 682

###

Catalogue of IC50 readings, one per entry.
tested on: MDA-MB-231; assay: Antiproliferative activity against human MDA-MB-231 cells assessed as cell growth inhibition

{"COMPOUND": "Cc1cc(Nc2nccc(N(C)c3ccc4c(C)n(C)nc4c3)n2)cnc1-c1nc2c(C(N)=O)cccc2[nH]1", "IC50": "8.91 µM"}

Inquiry: Query for MDA-MB-231: what IC50 does the record show for CN(c1ccc(N2CCOCC2)c(F)c1)c1ccnc(Nc2ccc(C(=O)Nc3nc4ccccc4[nH]3)cc2)n1 ?
Reply text: > 10 µM

Inquiry: Query for MDA-MB-231: what IC50 does the record show for COc1cc(N(C)c2ccc3c(C)n(C)nc3c2)nc(Nc2ccc(-c3nc4c(C(N)=O)cccc4[nH]3)cc2)n1 ?
Reply text: > 10 µM

Inquiry: Query for MDA-MB-231: what IC50 does the record show for Cc1c2ccc(N(C)c3ccnc(Nc4ccc(-c5nc6ccccc6[nH]5)c(Cl)c4)n3)cc2nn1C ?
Reply text: > 10 µM

Inquiry: Query for MDA-MB-231: what IC50 does the record show for NC(=O)c1cccc2[nH]c(-c3ccc(Nc4nccc(N5CCN(C(=O)c6ccccc6)CC5)n4)cc3)nc12 ?
Reply text: > 10 µM

Inquiry: Query for MDA-MB-231: what IC50 does the record show for Cc1c2ccc(N(C)c3ccnc(Nc4ccc(-c5nc6c(C(N)=O)cccc6[nH]5)cc4F)n3)cc2nn1C ?
Reply text: 9.34 µM

Inquiry: Query for MDA-MB-231: what IC50 does the record show for CN(c1ccc(Cl)cc1)c1ccnc(Nc2ccc(-c3nc4cc(F)c(F)cc4[nH]3)cc2)n1 ?
Reply text: > 10 µM

Inquiry: Query for MDA-MB-231: what IC50 does the record show for Cc1ccc(Nc2nccc(N(C)c3ccc4c(C)n(C)nc4c3)n2)cc1S(N)(=O)=O [PAZOPANIB] ?
Reply text: > 10 µM

Inquiry: Query for MDA-MB-231: what IC50 does the record show for Cc1c2ccc(N(C)c3ccnc(Nc4cccc(-c5nc6cc(F)c(F)cc6[nH]5)c4)n3)cc2nn1C ?
Reply text: 2.3 µM

###

test: Half life in Sprague-Dawley rat at 1 mg/kg, iv by LC-MS analysis; assay type: ADME, organism-based; details: in vivo
REPORTED_METRIC: half-life (h)
Numeric answer only, unit h assumed.

Inquiry: For the molecule Cc1ccc(Nc2nccc(N(C)c3ccc4c(C)n(C)nc4c3)n2)cc1-c1nc2c(C(N)=O)cccc2[nH]1 , what half-life is on record?
Reply text: 1.2

###

assay: Clearance in Sprague-Dawley rat at 1 mg/kg, iv by LC-MS analysis; format: ADME, organism-based; conditions: in vivo
REPORTED_METRIC: clearance (mL/min/kg)
Numeric answer only, unit mL/min/kg assumed.

Inquiry: For the compound Cc1ccc(Nc2nccc(N(C)c3ccc4c(C)n(C)nc4c3)n2)cc1-c1nc2c(C(N)=O)cccc2[nH]1 , what clearance is on record?
Reply text: 20.9

###

Target: Serine/threonine-protein kinase TAO2 (Homo sapiens, UniProt Q9UL54)
Sequence (Q9UL54 whole entry): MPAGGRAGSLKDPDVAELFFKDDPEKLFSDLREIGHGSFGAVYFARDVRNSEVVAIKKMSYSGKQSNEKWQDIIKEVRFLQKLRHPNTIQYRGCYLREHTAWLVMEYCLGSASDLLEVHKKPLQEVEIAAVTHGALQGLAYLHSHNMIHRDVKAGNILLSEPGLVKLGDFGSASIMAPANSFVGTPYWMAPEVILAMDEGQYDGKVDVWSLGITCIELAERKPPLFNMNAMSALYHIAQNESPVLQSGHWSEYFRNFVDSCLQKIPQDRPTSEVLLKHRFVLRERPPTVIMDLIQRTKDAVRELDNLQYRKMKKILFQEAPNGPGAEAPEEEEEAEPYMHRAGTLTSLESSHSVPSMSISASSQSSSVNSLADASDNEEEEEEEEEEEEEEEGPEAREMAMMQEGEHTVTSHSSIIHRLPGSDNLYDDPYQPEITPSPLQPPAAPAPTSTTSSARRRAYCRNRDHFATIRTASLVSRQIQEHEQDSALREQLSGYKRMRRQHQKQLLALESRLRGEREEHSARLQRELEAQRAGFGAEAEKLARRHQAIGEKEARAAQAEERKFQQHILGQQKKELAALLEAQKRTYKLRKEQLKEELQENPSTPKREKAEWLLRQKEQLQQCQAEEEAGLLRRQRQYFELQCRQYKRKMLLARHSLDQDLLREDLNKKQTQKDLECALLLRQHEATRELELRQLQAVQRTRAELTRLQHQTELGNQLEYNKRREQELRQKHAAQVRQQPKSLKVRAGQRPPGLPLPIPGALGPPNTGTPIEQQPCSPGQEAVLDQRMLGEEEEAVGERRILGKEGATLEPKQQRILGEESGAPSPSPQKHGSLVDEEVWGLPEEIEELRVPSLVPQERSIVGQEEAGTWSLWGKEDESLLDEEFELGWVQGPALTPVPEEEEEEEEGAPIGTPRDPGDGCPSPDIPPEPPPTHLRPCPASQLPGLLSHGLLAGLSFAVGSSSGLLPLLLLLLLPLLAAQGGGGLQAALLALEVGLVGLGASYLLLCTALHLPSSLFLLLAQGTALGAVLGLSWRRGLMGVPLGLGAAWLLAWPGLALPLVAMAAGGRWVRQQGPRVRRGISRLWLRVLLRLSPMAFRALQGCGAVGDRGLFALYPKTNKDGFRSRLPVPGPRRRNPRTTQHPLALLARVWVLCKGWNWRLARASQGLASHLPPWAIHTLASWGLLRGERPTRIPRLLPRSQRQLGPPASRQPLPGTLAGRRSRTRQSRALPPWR
REPORTED_METRIC: pIC50
On this scale, pIC50 is minus log10 of a concentration expressed in M (mol/L).

Inquiry: For the compound Cc1ccc(Nc2nccc(N(C)c3ccc4c(C)n(C)nc4c3)n2)cc1-c1nc2c(C(N)=O)cccc2[nH]1 , what pIC50 is on record?
Reply text: 6.16

###

experiment: Half life in Sprague-Dawley rat at 10 mg/kg, po via gavage by LC-MS analysis; assay type: ADME, organism-based; details: in vivo
REPORTED_METRIC: half-life (h)
Numeric answer only, unit h assumed.

Inquiry: For the compound Cc1ccc(Nc2nccc(N(C)c3ccc4c(C)n(C)nc4c3)n2)cc1-c1nc2c(C(N)=O)cccc2[nH]1 , what half-life is on record?
Reply text: 1
